percent hemolytic activity against red blood cells (%H) reference
Test system: red blood cells
Conditions: at 150 µM peptide; 0.5% v/v RBC in PBS, 1 h 37 °C, absorbance 414 nm, normalized to melittin (100%) and PBS (0%)
Square brackets hold non-standard residues; d marks the D form. Peptide text beside a SMILES is read from it. Bip = N[C@@H](Cc1ccc(-c2ccccc2)cc1)C(=O)O; 2Nal = N[C@@H](Cc1ccc2ccccc2c1)C(=O)O; Dab = NCC[C@H](N)C(=O)O; AEEA = NCCOCCOCC(=O)O
The reply should contain only the number, in %.

Consider the worked cases shown below.
Compound: N=C(N)NCCC[C@@H]1NC(=O)[C@H](CC(N)=O)NC(=O)[C@H](CCN)NC(=O)[C@H](Cc2ccc3ccccc3c2)NC(=O)COCCOCCNC(=O)[C@H](Cc2ccccc2)NC(=O)[C@H](CCN)NC(=O)[C@H](CCN)NC(=O)[C@H](Cc2ccc3ccccc3c2)NC1=O [compound 17] (cyclo(R[2Nal][Dab][Dab]F[AEEA][2Nal][Dab]N))
Value Measured: 3
--
Compound: NCCCC[C@@H]1NC(=O)[C@H](Cc2ccccc2)NC(=O)COCCOCCNC(=O)[C@H](Cc2ccc(-c3ccccc3)cc2)NC(=O)[C@H](CCCCN)NC(=O)[C@H](CCCCN)NC(=O)[C@H](Cc2ccc3ccccc3c2)NC(=O)[C@H](CCCCN)NC(=O)[C@H](CC(N)=O)NC1=O [compound 7] (cyclo(K[2Nal]KK[Bip][AEEA]FKN))
Value Measured: 7

Request: Returns the measured percent hemolytic activity against red blood cells (%H) for the input compound. Input: NCCCC[C@@H]1NC(=O)[C@H](Cc2ccc3ccccc3c2)NC(=O)COCCOCCNC(=O)[C@H](Cc2ccc(-c3ccccc3)cc2)NC(=O)[C@H](CCCCN)NC(=O)[C@H](CCCCN)NC(=O)[C@H](Cc2ccccc2)NC(=O)[C@H](CCCCN)NC(=O)[C@H](CC(N)=O)NC1=O [compound 5] (cyclo(KFKK[Bip][AEEA][2Nal]KN))
Response: 4
